Would you mind telling me the reported growth of each entry?
Test system: HCT-116 colon
ASSAY INFO: NCI-60 one-dose screen, 48 h (100 = growth as untreated, 0 = no growth, -100 = all killed)
EXPERIMENTAL CONDITIONS: 10 µM unless noted
This is part of a sample that, as a whole, favours compounds with a hit. Of some 83,000 tested, about 20% had one in any assay. Calls of active or inactive are those of the source. The calls were made as follows: active = growth percent below 10; inactive = the rest.

Recorded growth for `Nn1c(CN2CCN(c3cc4c(cc3F)c(=O)c(C(=O)O)cn4C3CC3)CC2)n[nH]c1=S` on HCT-116 colon was 102% (inactive)

Recorded growth for Cc1ccc2oc(=O)cc(C3C(C#N)=C(N)Oc4c3ccc3ccccc43)c2c1 (configuration not stated) on HCT-116 colon was 69.2% (inactive)

Recorded growth for `C=CC(=O)Nc1cccc(Nc2nc(Nc3ccc(OCCOC(F)F)cc3)ncc2F)c1` on HCT-116 colon was 36% (inactive)

Recorded growth for CC1=C[S+](c2ccccc2)c2cccc3cc4ccccc4c1c23 (configuration not stated) on HCT-116 colon was -87.6% (active)

Recorded growth for `Nc1nc(Nc2ccc(OCc3cccc(F)c3)cc2)c2c(n1)[nH]c1ccc(O)cc12` on HCT-116 colon was -97.1% (active)

Recorded growth for `NC(=S)NNC1CCCCC1` on HCT-116 colon was 91.8% (inactive)

Recorded growth for `Nc1nc(-c2cc3c(cc2Cl)NC(=O)/C3=C/c2ccccc2)cs1` on HCT-116 colon was 14.5% (inactive)

Recorded growth for `CCCCC(=O)Nc1nc2ccc(SCCC)cc2s1` on HCT-116 colon was 31.1% (inactive)

Recorded growth for `COc1cc2c(cc1OC)-c1c(oc3c4c(ccc3c1=O)OC(C)(C)C=C4)CO2` on HCT-116 colon was 40.3% (inactive)

Recorded growth for `CC(C)(C)OC(=O)N1CC(Cn2cc(C(F)(F)F)c3c(Cl)ncnc32)C1` on HCT-116 colon was -84.5% (active)

Recorded growth for `COc1cc2ncnc(Oc3ccc(NC(=O)Nc4ccc(CN5CCOCC5)c(C(F)(F)F)c4)c4ccccc34)c2cc1OC` on HCT-116 colon was 17.4% (inactive)

Recorded growth for `CCN(CC)CCNc1ccc([N+](=O)[O-])c2sc3cc(Cl)ccc3c(=O)c12` on HCT-116 colon was 11.8% (inactive)

Recorded growth for `COc1ccc(-c2c(C#N)cnc(N)c2-c2nc3cc(C)c(C)cc3[nH]2)cc1` on HCT-116 colon was 20.7% (inactive)

Recorded growth for `C=C1C(=O)O[C@H]2[C@H]1CC/C(COC(=O)c1ccc3ccccc3c1)=C\CC[C@@]1(C)O[C@@H]21` on HCT-116 colon was -90.6% (active)

Recorded growth for `COc1cc2nc(C(=O)N3CCCCC3)cc(Nc3ccccc3)c2cc1OC` on HCT-116 colon was 99.9% (inactive)

Recorded growth for `CCCCNc1cc(C(=O)O)cc(S(N)(=O)=O)c1Oc1ccccc1` on HCT-116 colon was 110% (inactive)

Recorded growth for `COc1ccc(-c2coc3c(CO)c(O)ccc3c2=O)cc1` on HCT-116 colon was 19.3% (inactive)

Recorded growth for `CC(=O)Oc1ccc(C(OC(C)=O)OC(C)=O)cc1` on HCT-116 colon was 92.8% (inactive)

Recorded growth for `COc1ccc(/C(Cl)=N/N=C(\Cl)c2cc(OC)c(OC)c(OC)c2)cc1OC(C)=O` on HCT-116 colon was 90.5% (inactive)

Recorded growth for COc1cc(CN(c2ccc(Cl)cc2)C2OC(=O)c3ccccc32)cc(OC)c1OC (configuration not stated) on HCT-116 colon was 28% (inactive)

Recorded growth for `C#C[C@H](O)/C=C/CCCCCCC#C[C@H](O)CC[C@@H](O)C#CCCCCCC/C=C/[C@@H](O)C#C` on HCT-116 colon was 57.3% (inactive)

Recorded growth for `NC(=NCCCOc1ccc(F)cc1)Nc1ccc(Cl)c(Cl)c1` on HCT-116 colon was 45.6% (inactive)

Recorded growth for `Oc1ccc(O)c(-[n+]2ccccc2)c1` on HCT-116 colon was 93.3% (inactive)

Recorded growth for `CN(C)c1ncc(C#Cc2c(F)cccc2F)c2ccccc12` on HCT-116 colon was 80.1% (inactive)

Recorded growth for `COc1ccc(/C(=C/c2cc(OC)c(OC)c(OC)c2)[N+](=O)[O-])cc1` on HCT-116 colon was 11.8% (inactive)

Recorded growth for `CC[C@@]1(O)C(=O)OCc2c1cc1n(c2=O)Cc2c-1nc1ccccc1c2/C=N/OC(C)(C)C` on HCT-116 colon was 3.24% (active)

Recorded growth for `Nc1ncc(-c2ccc3ncnc(Nc4cncc(Cl)c4)c3c2)cn1` on HCT-116 colon was 82.4% (inactive)

Recorded growth for `COc1ccc(/C=C/C(=O)c2ccc(-n3cc(CN4CCN(c5cc6c(cc5F)c(=O)c(C(=O)O)cn6C5CC5)CC4)nn3)cc2)cc1OC` on HCT-116 colon was -39.5% (active)

Recorded growth for `COc1ccc(NC(=O)Nc2ccc(-c3ccc(OC)c(OC)c3)nc2C)cc1` on HCT-116 colon was 49.4% (inactive)

Recorded growth for `CCCN1C(=O)CSC1=Nc1ccc2cc3ccc(N=C4SCC(=O)N4CCC)cc3nc2c1` on HCT-116 colon was 37% (inactive)

Recorded growth for `O=C(O)c1cc2ccccc2cc1Nc1ccccc1` on HCT-116 colon was 89.7% (inactive)

Recorded growth for `O=C(O)c1ccc(-n2cc(/C=N/Nc3ccccc3F)c(-c3ccc(O)cc3)n2)cc1` on HCT-116 colon was 71.2% (inactive)

Recorded growth for `Cc1cccc(CC(=O)c2ccccc2)n1` on HCT-116 colon was 90.5% (inactive)

Recorded growth for `COC(=O)c1ccc(NC(N)=NCC(C)(C)COc2ccc(C(F)(F)F)cc2)nc1` on HCT-116 colon was 0.764% (active)

Recorded growth for `COc1ccc(C(=O)Cn2cnc3c(Nc4cc(C(=O)Nc5ccc(N6CCN(CCO)CC6)cc5)ccc4C)ncnc32)cc1` on HCT-116 colon was 97.3% (inactive)

Recorded growth for `Cc1ccc(-c2nc3c(N=Nc4ccc(S(N)(=O)=O)cc4)c(N)nn3c(N)c2C#N)cc1` on HCT-116 colon was 13.7% (inactive)

Recorded growth for COc1ccc(SC2c3ccc(O)cc3Oc3nc(N)c(C#N)c(N)c32)cc1 (configuration not stated) on HCT-116 colon was 94.9% (inactive)
